meta.source: ChEMBL document CHEMBL1795227

- MEASUREMENT DESCRIPTION: Tmax in Sprague-Dawley rat at 5 mg/kg, po
- Format: ADME, organism-based
- Parameters: dose 5 mg/kg, route oral
- CONDITION DETAILS: in vivo
PROPERTY MEASURED: Tmax (h)
Respond numerically; units are h and should not be typed.

Lab note: COCCN1CCc2cc(Nc3ncc(Cl)c(N[C@@H]4CCCC[C@H]4NS(C)(=O)=O)n3)c(OC)cc2CC1 gave Tmax of 1.8

====

- MEASUREMENT DESCRIPTION: Plasma concentration in Karpas-299 cells xenografted mouse at 30 mg/kg, po administered as single dose measured after 6 hrs
- Format: ADME, organism-based
- Set-up: dose 30 mg/kg, route oral
PROPERTY MEASURED: concentration at 6 h (ng/mL)
Entry rule: numbers only, all in ng/mL.

Sure, the documented concentration at 6 h for COCCN1CCc2cc(Nc3ncc(Cl)c(N[C@@H]4CCCC[C@H]4NS(C)(=O)=O)n3)c(OC)cc2CC1 is 3680

====

- TARGET OR TEST SYSTEM: ALK tyrosine kinase receptor (Homo sapiens, UniProt Q9UM73)
- Sequence (Q9UM73 whole entry): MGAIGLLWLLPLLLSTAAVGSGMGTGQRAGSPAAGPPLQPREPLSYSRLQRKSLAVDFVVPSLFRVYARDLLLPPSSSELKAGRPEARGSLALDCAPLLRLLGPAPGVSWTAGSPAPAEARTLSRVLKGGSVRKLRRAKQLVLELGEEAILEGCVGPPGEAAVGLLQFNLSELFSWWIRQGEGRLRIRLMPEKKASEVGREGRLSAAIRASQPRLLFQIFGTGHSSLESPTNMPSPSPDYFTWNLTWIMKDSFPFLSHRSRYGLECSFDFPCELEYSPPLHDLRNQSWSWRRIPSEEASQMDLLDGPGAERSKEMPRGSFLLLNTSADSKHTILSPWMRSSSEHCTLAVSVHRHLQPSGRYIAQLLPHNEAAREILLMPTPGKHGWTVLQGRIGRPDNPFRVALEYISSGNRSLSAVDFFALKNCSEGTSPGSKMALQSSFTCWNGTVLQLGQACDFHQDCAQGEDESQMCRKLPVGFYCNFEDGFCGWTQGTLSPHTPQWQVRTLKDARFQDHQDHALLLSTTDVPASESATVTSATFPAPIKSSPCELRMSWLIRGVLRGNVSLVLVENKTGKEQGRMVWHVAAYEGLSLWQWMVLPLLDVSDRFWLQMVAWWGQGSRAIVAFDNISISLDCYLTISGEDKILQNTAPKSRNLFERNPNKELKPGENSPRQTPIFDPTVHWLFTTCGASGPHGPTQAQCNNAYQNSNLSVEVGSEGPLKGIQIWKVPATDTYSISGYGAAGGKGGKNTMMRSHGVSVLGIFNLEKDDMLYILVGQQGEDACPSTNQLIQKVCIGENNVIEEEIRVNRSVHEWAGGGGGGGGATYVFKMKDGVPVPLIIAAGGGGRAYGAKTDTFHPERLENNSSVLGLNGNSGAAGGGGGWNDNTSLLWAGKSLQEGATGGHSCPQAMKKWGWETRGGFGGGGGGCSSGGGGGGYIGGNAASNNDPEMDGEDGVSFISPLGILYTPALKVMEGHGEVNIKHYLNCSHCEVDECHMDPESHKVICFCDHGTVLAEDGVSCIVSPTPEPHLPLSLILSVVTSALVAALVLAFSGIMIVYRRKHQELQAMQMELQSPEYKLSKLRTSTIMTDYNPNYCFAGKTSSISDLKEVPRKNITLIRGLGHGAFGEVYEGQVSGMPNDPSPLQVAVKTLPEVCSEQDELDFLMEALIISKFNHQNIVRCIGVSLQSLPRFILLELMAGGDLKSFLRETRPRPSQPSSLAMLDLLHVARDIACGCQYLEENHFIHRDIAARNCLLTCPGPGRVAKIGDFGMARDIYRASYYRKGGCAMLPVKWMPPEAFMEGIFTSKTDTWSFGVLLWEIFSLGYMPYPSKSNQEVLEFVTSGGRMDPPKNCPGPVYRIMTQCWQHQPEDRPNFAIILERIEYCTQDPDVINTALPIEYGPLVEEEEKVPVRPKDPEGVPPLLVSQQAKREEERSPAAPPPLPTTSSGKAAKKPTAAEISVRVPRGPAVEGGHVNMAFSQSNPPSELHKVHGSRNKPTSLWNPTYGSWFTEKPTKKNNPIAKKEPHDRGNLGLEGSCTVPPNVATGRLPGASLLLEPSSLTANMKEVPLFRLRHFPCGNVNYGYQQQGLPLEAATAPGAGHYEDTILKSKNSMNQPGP
- MEASUREMENT DESCRIPTION: Inhibition of ALK
PROPERTY MEASURED: pIC50
Units for pIC50: none; it is -log10 of a concentration expressed in mol/L.

Observe how each entry below is paired with its result.
molecule_smiles=COCCN1CCc2cc(Nc3ncc(Cl)c(N[C@@H]4CCCC[C@H]4NS(C)(=O)=O)n3)c(OC)cc2CC1 property_measured=pIC50 value_measured=8.22
molecule_smiles=CCN1CCc2ccc(Nc3ncc(Cl)c(N[C@@H]4CCCC[C@H]4NS(C)(=O)=O)n3)cc2CC1 property_measured=pIC50 value_measured=8.05
molecule_smiles=COCCN1CCc2ccc(Nc3ncc(Cl)c(N[C@@H]4CCCC[C@H]4NC(=O)C(F)(F)F)n3)cc2CC1 property_measured=pIC50 value_measured=7.66
molecule_smiles=CCS(=O)(=O)N[C@@H]1CCCC[C@H]1Nc1nc(Nc2ccc3c(c2)CCN(CCOC)CC3)ncc1Cl property_measured=pIC50 value_measured=7.30

With those in mind, consider the next compound.
The compound COCCN1CCc2ccc(Nc3ncc(Cl)c(N[C@@H]4CCCC[C@H]4NS(=O)(=O)C4CC4)n3)cc2CC1 showed pIC50 equal to 6.96

====

- MEASUREMENT DESCRIPTION: Plasma concentration in Karpas-299 cells xenografted mouse at 30 mg/kg, po administered as single dose measured after 12 hrs
- Assay type: ADME, organism-based
- Design: dose 30 mg/kg, route oral
PROPERTY MEASURED: concentration at 12 h (ng/mL)
Field: numeric (ng/mL). Do not append units.

Record COCCN1CCc2cc(Nc3ncc(Cl)c(N[C@@H]4CCCC[C@H]4NS(C)(=O)=O)n3)c(OC)cc2CC1 , field concentration at 12 h: 2650

====

- MEASUREMENT DESCRIPTION: Cmax in Sprague-Dawley rat at 5 mg/kg, po
- Type: ADME, organism-based
- Set-up: dose 5 mg/kg, route oral
- CONDITION DETAILS: in vivo
PROPERTY MEASURED: Cmax (ng/mL)
The reply should be a number in ng/mL, with the unit left off.

Lookup result for COCCN1CCc2cc(Nc3ncc(Cl)c(N[C@@H]4CCCC[C@H]4NS(C)(=O)=O)n3)c(OC)cc2CC1 ; measured Cmax: 23
